# target.entity: cynomolgus LIV-1 (cynomolgus, UniProt A0A2K5WH46 30-741)
# Sequence (A0A2K5WH46 entry or part of it): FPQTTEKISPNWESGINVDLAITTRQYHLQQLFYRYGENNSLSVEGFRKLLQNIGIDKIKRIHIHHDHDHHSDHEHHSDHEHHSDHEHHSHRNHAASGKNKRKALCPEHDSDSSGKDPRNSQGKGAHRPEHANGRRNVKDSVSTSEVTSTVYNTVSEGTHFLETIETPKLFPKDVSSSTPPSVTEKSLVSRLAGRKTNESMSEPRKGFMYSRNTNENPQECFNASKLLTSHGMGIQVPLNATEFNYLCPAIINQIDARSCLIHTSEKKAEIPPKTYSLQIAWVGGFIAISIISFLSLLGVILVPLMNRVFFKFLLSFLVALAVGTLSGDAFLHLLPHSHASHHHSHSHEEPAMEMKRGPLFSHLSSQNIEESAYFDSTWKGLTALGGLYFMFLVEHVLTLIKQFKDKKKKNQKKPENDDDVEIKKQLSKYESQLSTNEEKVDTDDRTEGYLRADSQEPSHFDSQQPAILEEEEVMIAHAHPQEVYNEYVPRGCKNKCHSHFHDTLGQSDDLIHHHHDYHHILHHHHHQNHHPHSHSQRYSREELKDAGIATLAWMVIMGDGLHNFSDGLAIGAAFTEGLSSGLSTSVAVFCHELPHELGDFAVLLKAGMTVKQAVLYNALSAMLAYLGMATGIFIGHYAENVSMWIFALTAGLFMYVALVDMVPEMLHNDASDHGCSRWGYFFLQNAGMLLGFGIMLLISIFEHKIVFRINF
# assay.remarks: FACS, HEK293/Cyno_LIV-1 cells
reported.endpoint: Top (MFI)
Just the number plus its unit, please.

90H4F8 (antibody, V domains shown, Tested as chimeric antibody) VH: QVQLQQSGPELVKPGASVRISCKASGYTFTSYHMHWVKQRPGQGLEWIGWIYPGNVKNQSNEKFKGKATLTADKSSSTAYMHLSSLTSEDSAVYFCARSDITRAFFAYWGQGTLVTVSA VL: DVLMTQTPLSLPVSLGDQASISCRSSQSIVHSNGNTYLEWYLQKPGQSPKLLIYKVSNRFSGVPDRFSGSGSGTDFTLKISRVEAEDLGVYYCFQGSHGPYTFGGGTKLEIK
6880 MFI
79F5G5 (antibody, V domains shown, Tested as chimeric antibody) VH: EVQLQQSGAELVRSGASVKLSCTASGFNIKDYYMHWVKQRPEQGLEWIGWIDPENGDTEYAPKFQGKATLTADTSSNTAYLQLSSLTFEDTAVYYCPHGGGLRVFDYWGQGTSLTVSS VL: DVLMTQIPLSLSVSLGDQASISCRSSQSIVHSNGNTYLEWYLQKPGQSPKLLIYKVSNRFSGVPDRFSGSGSGTDFTLKISRVEAEDLGVYYCFQGSHVPWTFGGGTKLEIK
7020 MFI

Now consider a different binder.
// field: Top (MFI); key: 82C7C7 (antibody, V domains shown, Tested as chimeric antibody) VH: EVQLQQSGAELVKPGASIKLSCTPSGFNIKDTFIHWVKQRPEQGLEWIGRIDPANGNTRYDPKFQGKATITADTSSNTAYLQLISLTSEDTAVYYCAGGSISTVVPDYWGQGTTLTVSS VL: DVVVTQTPLSLPVSLGDQASISCRSSQSLVHNNGNTYLHWYLQKPGQSPKLLIYKVSNRFSGVPDRFSGSGSGTDFTLKISRVEAEDLGVYFCSQSTHVPYTFGGGTKLEIK ; value = 7130 MFI
